- Measured target: rat α4β2 nAChR subtype (Rattus norvegicus, UniProt P09483+P12390)
- Construct: Preparation of membranes from rat cortex; from tissue; host or cells: rat cerebral cortex membranes
- Sequence (P09483 31-630): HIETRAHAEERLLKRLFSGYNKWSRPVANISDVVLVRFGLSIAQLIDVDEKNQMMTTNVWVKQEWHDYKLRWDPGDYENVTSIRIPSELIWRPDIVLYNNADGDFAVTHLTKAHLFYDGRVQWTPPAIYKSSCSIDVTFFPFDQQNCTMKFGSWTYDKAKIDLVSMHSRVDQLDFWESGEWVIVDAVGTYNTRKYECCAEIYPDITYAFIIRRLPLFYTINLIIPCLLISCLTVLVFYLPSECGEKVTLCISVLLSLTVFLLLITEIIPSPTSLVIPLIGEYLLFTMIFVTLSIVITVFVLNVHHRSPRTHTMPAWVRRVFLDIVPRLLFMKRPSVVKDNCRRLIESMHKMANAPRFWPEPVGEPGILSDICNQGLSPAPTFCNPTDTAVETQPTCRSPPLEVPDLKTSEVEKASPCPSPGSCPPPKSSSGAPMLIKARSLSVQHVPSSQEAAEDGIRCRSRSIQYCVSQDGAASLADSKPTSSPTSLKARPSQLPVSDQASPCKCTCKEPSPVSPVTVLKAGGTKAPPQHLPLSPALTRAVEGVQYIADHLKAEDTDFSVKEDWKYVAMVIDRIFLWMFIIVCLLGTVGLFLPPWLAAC
- Sequence (P12390 25-500): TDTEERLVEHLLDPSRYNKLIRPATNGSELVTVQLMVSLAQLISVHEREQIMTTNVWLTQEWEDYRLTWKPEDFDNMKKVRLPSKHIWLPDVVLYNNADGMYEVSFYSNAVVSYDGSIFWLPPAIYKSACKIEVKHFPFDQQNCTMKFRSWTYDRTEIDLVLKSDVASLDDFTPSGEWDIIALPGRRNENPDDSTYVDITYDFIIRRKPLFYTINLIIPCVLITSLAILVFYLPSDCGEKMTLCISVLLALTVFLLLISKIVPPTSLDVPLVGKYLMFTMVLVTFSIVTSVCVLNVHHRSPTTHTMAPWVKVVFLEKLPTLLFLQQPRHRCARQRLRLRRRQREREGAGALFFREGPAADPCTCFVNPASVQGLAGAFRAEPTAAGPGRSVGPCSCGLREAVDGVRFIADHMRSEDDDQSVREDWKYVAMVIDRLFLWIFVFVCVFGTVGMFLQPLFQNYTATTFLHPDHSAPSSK
- Experimental protocol: Radioligand binding ([3H]nicotine) at rat α4β2 nAChR, rat cortex membranes
Readout: Ki (nM)

O=C(Oc1ccc(F)cc1)N1C[C@H]2CN[C@H](C2)C1 : 45

---

- Measured target: human α4β2 nAChR subtype (Homo sapiens, UniProt P17787+P43681)
- Construct: expressed in transfected cells; host or cells: SH-EP1 clonal cells expressing human α4β2
- Sequence (P43681 29-627 limits assumed): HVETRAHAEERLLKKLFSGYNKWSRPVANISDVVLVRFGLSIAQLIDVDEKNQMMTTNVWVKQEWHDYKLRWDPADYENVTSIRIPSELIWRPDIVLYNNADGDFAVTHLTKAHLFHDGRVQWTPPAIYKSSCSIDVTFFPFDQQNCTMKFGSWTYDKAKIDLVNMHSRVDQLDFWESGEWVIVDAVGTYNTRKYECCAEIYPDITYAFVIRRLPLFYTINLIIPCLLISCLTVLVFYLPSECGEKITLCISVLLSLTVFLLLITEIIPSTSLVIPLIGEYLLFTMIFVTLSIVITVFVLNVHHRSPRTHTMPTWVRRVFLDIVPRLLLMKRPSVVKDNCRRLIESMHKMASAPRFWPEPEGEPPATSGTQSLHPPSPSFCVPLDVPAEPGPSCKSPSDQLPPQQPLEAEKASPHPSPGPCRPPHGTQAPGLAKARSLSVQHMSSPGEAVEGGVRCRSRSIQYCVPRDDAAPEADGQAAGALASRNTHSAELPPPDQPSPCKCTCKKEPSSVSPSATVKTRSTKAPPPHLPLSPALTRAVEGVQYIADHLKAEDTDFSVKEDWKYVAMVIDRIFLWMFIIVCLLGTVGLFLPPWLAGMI
- Sequence (P17787 26-502): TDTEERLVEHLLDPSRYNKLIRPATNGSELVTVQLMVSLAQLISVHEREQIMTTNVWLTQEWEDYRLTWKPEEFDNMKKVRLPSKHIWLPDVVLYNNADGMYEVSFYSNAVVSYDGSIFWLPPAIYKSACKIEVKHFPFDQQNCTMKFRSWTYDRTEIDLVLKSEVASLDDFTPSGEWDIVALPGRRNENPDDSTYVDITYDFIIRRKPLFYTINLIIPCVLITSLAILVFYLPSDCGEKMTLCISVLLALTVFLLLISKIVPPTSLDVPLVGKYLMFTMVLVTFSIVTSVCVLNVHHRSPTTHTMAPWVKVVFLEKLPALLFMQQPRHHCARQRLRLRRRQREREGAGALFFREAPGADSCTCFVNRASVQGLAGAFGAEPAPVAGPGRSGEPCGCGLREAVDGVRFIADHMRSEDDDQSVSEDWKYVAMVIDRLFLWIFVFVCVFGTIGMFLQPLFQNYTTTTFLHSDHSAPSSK
- Experimental protocol: Radioligand binding ([3H]nicotine) at human α4β2 nAChR, SH-EP1/human α4β2 clonal cell membranes
- Recorded conditions: SH-EP1/human α4β2 cell membranes, 5 nM [3H]nicotine; read-out: Human α4β2 Ki
With a cut-off of 400 nM, any Ki strictly below it is called label 1; any Ki meeting it or above is called label 0.

COC(=O)N1C[C@H]2CNC[C@@H]1C2 : label 0
COCCOC(=O)N1C[C@H]2CN[C@H](C2)C1 : label 1
CC(=O)N1C[C@@H]2CN[C@@H](C2)C1 : label 0
COC(=O)N1C[C@@H]2CN[C@@H](C2)C1 : label 1
O=C(C1CC=CC1)N1C[C@@H]2CN[C@@H](C2)C1 : label 0
CC(C)OC(=O)N1C[C@@H]2CN[C@@H](C2)C1 : label 0
COCCOC(=O)N1C[C@@H]2CN[C@@H](C2)C1 : label 0

---

- Measured target: human α4β2 nAChR subtype (Homo sapiens, UniProt P17787+P43681)
- Construct: expressed in transfected cells; host or cells: SH-EP1 clonal cells expressing human α4β2
- Experimental protocol: Radioligand binding ([3H]nicotine) at human α4β2 nAChR, SH-EP1/human α4β2 clonal cell membranes
Readout: Ki (nM)

O=C(Oc1ccc(F)cc1)N1C[C@H]2CN[C@H](C2)C1 : 310

---

- Measured target: rat α7 nAChR subtype (Rattus norvegicus, UniProt Q05941)
- Construct: Preparation of membranes from rat hippocampus; from tissue; host or cells: rat hippocampus membranes
- Sequence (Q05941 23-502): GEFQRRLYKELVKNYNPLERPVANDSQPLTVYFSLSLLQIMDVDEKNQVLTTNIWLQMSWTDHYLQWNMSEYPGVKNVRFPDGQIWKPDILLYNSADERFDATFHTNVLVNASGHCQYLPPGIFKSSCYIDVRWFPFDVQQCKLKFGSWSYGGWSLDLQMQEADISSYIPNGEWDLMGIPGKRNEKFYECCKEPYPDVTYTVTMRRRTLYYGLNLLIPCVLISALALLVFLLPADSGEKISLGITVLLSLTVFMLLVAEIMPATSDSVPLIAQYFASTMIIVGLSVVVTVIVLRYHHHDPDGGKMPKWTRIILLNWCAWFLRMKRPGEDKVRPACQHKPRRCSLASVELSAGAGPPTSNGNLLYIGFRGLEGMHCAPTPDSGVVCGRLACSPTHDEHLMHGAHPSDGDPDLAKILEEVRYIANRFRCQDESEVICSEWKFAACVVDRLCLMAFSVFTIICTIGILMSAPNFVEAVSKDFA
- Experimental protocol: Radioligand binding ([3H]MLA) at α7 nAChR, rat hippocampus membranes
- Recorded conditions: rat hippocampus membranes, 5 nM [3H]MLA; read-out: Rat α7 Ki
pKi: −log10 of the molar value.
Readout: pKi

O=C(C1CC1)N1C[C@H]2CN[C@H](C2)C1 : 6.72
O=C(C1CC1(F)F)N1C[C@@H]2CN[C@@H](C2)C1 (some centres unmarked) : 6.17
O=C(CCF)N1C[C@@H]2CN[C@@H](C2)C1 : 6.02
O=C(C1CCCC1)N1C[C@@H]2CN[C@@H](C2)C1 : 6.89
O=C(C1CC1)N1CC2CNC(C2)C1 (centres unmarked) : 6.54
CC(C)C(=O)N1C[C@H]2CNC[C@@H]1C2 : 6.05
O=C(C1CC=CC1)N1CC2CNCC1C2 (centres unmarked) : 6.80
O=C(CCF)N1C[C@H]2CNC[C@@H]1C2 : 5.64

---

- Measured target: human α4β2 nAChR subtype (Homo sapiens, UniProt P17787+P43681)
- Construct: expressed in transfected cells; host or cells: SH-EP1 clonal cells expressing human α4β2
- Experimental protocol: Radioligand binding ([3H]nicotine) at human α4β2 nAChR, SH-EP1/human α4β2 clonal cell membranes
- Recorded conditions: read-out: Human α4β2 Ki
Readout: Ki (nM)

CC(C)C(=O)N1C[C@@H]2CNC[C@H]1C2 : 590
O=C(C1CC1)N1C[C@H]2CN[C@H](C2)C1 : 0.8
CC(=O)N1C[C@@H]2CNC[C@H]1C2 : 1300
COC(=O)N1C[C@H]2CN[C@H](C2)C1 : 7.9
CC(C)(C)C(=O)N1C[C@H]2CN[C@H](C2)C1 : 26
O=C(C1CC12CCC2)N1C[C@@H]2CN[C@@H](C2)C1 (stereo partly drawn) : 2.3

---

- Measured target: rat α7 nAChR subtype (Rattus norvegicus, UniProt Q05941)
- Construct: Preparation of membranes from rat hippocampus; from tissue; host or cells: rat hippocampus membranes
- Experimental protocol: Radioligand binding ([3H]MLA) at α7 nAChR, rat hippocampus membranes
With a cut-off of 0.3 µM, any Ki strictly below it is called true; any Ki meeting it or above is called false.

O=C(C1CCC1)N1C[C@H]2CN[C@H](C2)C1 : false
O=C(C1CC=CC1)N1C[C@H]2CN[C@H](C2)C1 : true
CC(C)C(=O)N1C[C@@H]2CN[C@@H](C2)C1 : true
O=C([C@H]1C[C@H]1F)N1C[C@H]2CNC[C@@H]1C2 : false
O=C(C1CC=CC1)N1CC2CNC(C2)C1 (stereo not drawn) : true
O=C(C1C[C@@H]1F)N1CC2CNC(C2)C1 (stereo partly drawn) : true

---

Readings of pKi for the listed compounds
- Measured target: human α4β2 nAChR subtype (Homo sapiens, UniProt P17787+P43681)
- Construct: expressed in transfected cells; host or cells: SH-EP1 clonal cells expressing human α4β2
- Experimental protocol: Radioligand binding ([3H]nicotine) at human α4β2 nAChR, SH-EP1/human α4β2 clonal cell membranes
- Recorded conditions: read-out: Human α4β2 Ki
pKi: −log10 of the molar value.
Readout: pKi

CCCC(=O)N1C[C@@H]2CNC[C@H]1C2 : 7.47
CS(=O)(=O)N1C[C@@H]2CN[C@@H](C2)C1 : 5.64
COC(=O)N1C[C@@H]2CNC[C@H]1C2 : 7.07
O=C(C1CC1(F)F)N1C[C@@H]2CN[C@@H](C2)C1 (stereo partly shown) : 7.96
CN1C[C@H]2C[C@@H]1CN(C(=O)C1CC1)C2 : 7.74
O=C(C1CC=CC1)N1CC2CNCC1C2 (stereo not shown) : 7.68
O=C(CCF)N1C[C@@H]2CN[C@@H](C2)C1 : 7.57
O=C(C1CC=CC1)N1C[C@H]2CN[C@H](C2)C1 : 8.36
CCOC(=O)N1C[C@H]2CN[C@H](C2)C1 : 7.82
O=C(C1C[C@@H]1F)N1CC2CNC(C2)C1 (stereo partly shown) : 7.85
C=CCNC(=O)N1C[C@@H]2CN[C@@H](C2)C1 : 6.04
O=C(C1CC=CC1)N1CC2CNC(C2)C1 (stereo not shown) : 7.89
COC(=O)N1CC2CNC(C2)C1 (stereo not shown) : 7.92
CC(C)C(=O)N1C[C@H]2CNC[C@@H]1C2 : 6.11
CCCOC(=O)N1C[C@@H]2CN[C@@H](C2)C1 : 7.03
CC(C)CC(=O)N1C[C@@H]2CN[C@@H](C2)C1 : 6.46
O=C(C1CC1)N1C[C@@H]2CNC[C@H]1C2 : 8.40
CCCCS(=O)(=O)N1C[C@@H]2CN[C@@H](C2)C1 : 5.68
CC1(C)C(C(=O)N2CC3CNC(C3)C2)C1(C)C (stereo not shown) : 5.07
CC(C)OC(=O)N1C[C@H]2CN[C@H](C2)C1 : 7.36
O=C(C1CC1)C1N[C@H]2CNC[C@@H]1C2 (stereo partly shown) : 6.32
O=C(C1CCC1)N1C[C@@H]2CNC[C@H]1C2 : 7.64
CCCCC(=O)N1C[C@@H]2CN[C@@H](C2)C1 : 7.11
CCOC(=O)N1C[C@@H]2CNC[C@H]1C2 : 7.11
CC1(C)CC1C(=O)N1C[C@@H]2CN[C@@H](C2)C1 (stereo partly shown) : 7.51
O=C(C1CC1)N1CC2CNCC1C2 (stereo not shown) : 8.47
O=C(C1C[C@H]1F)N1CC2CNC(C2)C1 (stereo partly shown) : 7.96
COc1ccc(S(=O)(=O)N2C[C@@H]3CN[C@@H](C3)C2)cc1 : 6.24
O=C([C@@H]1C[C@H]1F)N1C[C@H]2CNC[C@@H]1C2 : 6.64
O=C(C1CC1)N1C[C@@H]2CN[C@@H](C2)C1 : 8.14
O=C([C@H]1C[C@@H]1F)N1C[C@@H]2CNC[C@H]1C2 : 7.96
O=C(CCF)N1C[C@H]2CNC[C@@H]1C2 : 5.62
CCNC(=O)N1C[C@@H]2CN[C@@H](C2)C1 : 6.25
C/C=C/CC(=O)N1C[C@@H]2CN[C@@H](C2)C1 : 6.66
O=C([C@H]1C[C@H]1F)N1C[C@@H]2CNC[C@H]1C2 : 8.43
CCOC(=O)N1C[C@H]2CNC[C@@H]1C2 : 5.85
O=C(CC(F)(F)F)N1C[C@@H]2CN[C@@H](C2)C1 : 7.14
CC(C)C(=O)N1C[C@@H]2CN[C@@H](C2)C1 : 6.42

---

- Measured target: human α4β2 nAChR subtype (Homo sapiens, UniProt P17787+P43681)
- Construct: expressed in transfected cells; host or cells: SH-EP1 clonal cells expressing human α4β2
- Experimental protocol: Radioligand binding ([3H]nicotine) at human α4β2 nAChR, SH-EP1/human α4β2 clonal cell membranes
- Recorded conditions: read-out: Human α4β2 Ki
pKi: −log10 of the molar value.
Readings of pKi for the listed compounds
Readout: pKi

CCCS(=O)(=O)N1C[C@@H]2CN[C@@H](C2)C1 : 5.55
O=C(C1CCC1)N1C[C@H]2CN[C@H](C2)C1 : 8.80
CCCC(=O)N1C[C@@H]2CN[C@@H](C2)C1 : 7.74
O=C(C1CCOC1)N1C[C@@H]2CN[C@@H](C2)C1 (stereo partly shown) : 7.34
CC1CC1C(=O)N1C[C@@H]2CN[C@@H](C2)C1 (stereo partly shown) : 8.17
CCC(=O)N1C[C@@H]2CNC[C@H]1C2 : 7.57
O=C(C1CCCC1)N1C[C@@H]2CN[C@@H](C2)C1 : 6.80

Origin of measurements: patent US20110263629A1
